Ref: patent US12371454B2

The following compounds are listed with their measured pIC50 values.
# target.of.assay: Kras and SOS1 (biotin-tagged human Kras loaded with GDP, His-tagged human SOS1) (Homo sapiens, UniProt P01116, G12D)
# Construct: made in house; host or cells: E. coli (stated for Kras only)
# Sequence (P01116 1-188 isoform P01116-2 G12D): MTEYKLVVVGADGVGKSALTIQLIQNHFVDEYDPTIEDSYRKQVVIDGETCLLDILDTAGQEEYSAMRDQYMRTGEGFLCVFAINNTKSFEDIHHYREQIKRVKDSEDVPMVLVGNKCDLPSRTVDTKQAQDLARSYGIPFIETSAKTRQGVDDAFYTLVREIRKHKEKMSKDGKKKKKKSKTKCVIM
# assay.method.text: Protein-protein interaction inhibition between Kras and SOS1 (KrasGl2D-SOS PPI) using AlphaScreen
# Format: binding
# measurement.conditions: AlphaScreen; biotin-tagged human Kras loaded with GDP, His-tagged human SOS1; read-out: KRAS G12D-SOS PPI IC50
pIC50: −log10 of the molar value. Starred links: 1 amine or outer side, 2 acyl side, 3 side chain; linkers in the order of their positions; H or OH if unused. Positions of bridges follow the written chain, without caps; N, C: chain ends. Non-standard residues stand in square brackets, D forms with d. Residues, ends and D or L forms follow the SMILES beside them. *: point of attachment. hPhe(3-Cl-4-CF3) = N[C@@H](CCc1ccc(C(F)(F)F)c(Cl)c1)C(=O)O; NMePhe(4-CF3) = CN[C@@H](Cc1ccc(C(F)(F)F)cc1)C(=O)O; NMePhe(4-Cl) = CN[C@@H](Cc1ccc(Cl)cc1)C(=O)O; X4 = O=C([C@H](Cc1cc(F)cc(Cl)c1)N[*:1])[*:2]; NMePhe(4-Me) = CN[C@@H](Cc1ccc(C)cc1)C(=O)O; NMePhe(3-F) = CN[C@@H](Cc1cccc(F)c1)C(=O)O; NMePhe(4-F) = CN[C@@H](Cc1ccc(F)cc1)C(=O)O; NMeGly(cPent) = CN[C@H](C(=O)O)C1CCCC1; Phe(3-I) = N[C@@H](Cc1cccc(I)c1)C(=O)O; X70 = CC(C)(O)COCCN(CC(=O)[*:2])[*:1]; Phe(2-Me) = Cc1ccccc1C[C@H](N)C(=O)O; NMeCha = CN[C@@H](CC1CCCCC1)C(=O)O; NMeAllylGly = C=CC[C@H](NC)C(=O)O; NMeChg = CN[C@H](C(=O)O)C1CCCCC1; NMeI = CC[C@H](C)[C@H](NC)C(=O)O; N(CH2CH2)2CF2 = FC1(F)CCN(*)CC1; NMeD = CN[C@@H](CC(=O)O)C(=O)O; NMeL = CN[C@@H](CC(C)C)C(=O)O; NMeV = CN[C@H](C(=O)O)C(C)C; dNMeS = CN[C@H](CO)C(=O)O; NMeA = CN[C@@H](C)C(=O)O; NMeAib = CNC(C)(C)C(=O)O; Nle = CCCC[C@H](N)C(=O)O; Piperidide = C1CCN(*)CC1; Ac5c = NC1(C(=O)O)CCCC1; Aze = O=C(O)[C@@H]1CCN1; Abu = CC[C@H](N)C(=O)O; Isopentyl = CC(C)CC*; βAla = NCCC(=O)O; Sar = CNCC(=O)O

{"compound": "CC[C@H](C)[C@@H]1NC(=O)CCNC(=O)[C@H](Cc2cccc(F)c2)N(C)C(=O)[C@H](C2CCCCC2)N(C)C(=O)C2(CCCC2)NC(=O)[C@@H]2CCCN2C(=O)[C@H](CCc2ccc(C(F)(F)F)c(Cl)c2)NC(=O)CN(C)C(=O)[C@H](CC2CCCCC2)N(C)C(=O)CN(C)C(=O)CN(C)C1=O [Compound 237] (cyclo([Ac5c][NMeChg][NMePhe(3-F)][βAla]I[Sar][Sar][NMeCha][Sar][hPhe(3-Cl-4-CF3)]P))", "pIC50": 7.38}
{"compound": "C=CC[C@H]1C(=O)NC2(CCCC2)C(=O)N(C)[C@@H](C(C)C)C(=O)N(C)[C@H](C(=O)N2CCCCC2)CC(=O)N(C)[C@@H](CC(C)C)C(=O)N[C@@H]([C@@H](C)CC)C(=O)N(C)[C@@H](C)C(=O)N2CC[C@H]2C(=O)N(C)[C@@H](CC2CCCCC2)C(=O)N(C)CC(=O)N[C@@H](CCc2ccc(C(F)(F)F)c(Cl)c2)C(=O)N1C [Compound 1447] ([NMeL]I[NMeA][Aze][NMeCha][Sar][hPhe(3-Cl-4-CF3)][NMeAllylGly][Ac5c][NMeV][NMeD]-Piperidide; lactam N-11)", "pIC50": 7.00}
{"compound": "CC[C@H](C)[C@@H]1NC(=O)[C@H](CC(C)C)N(C)C(=O)C[C@@H](C(=O)N2CCCCC2)N(C)C(=O)[C@H](CC(C)C)NC(=O)C(C)(C)N(C)C(=O)[C@H](Cc2ccccc2C)NC(=O)[C@H](Cc2cccc(I)c2)NC(=O)CN(C)C(=O)[C@H](Cc2ccc(C)cc2)N(C)C(=O)CN(C)C(=O)CN(C)C1=O [Compound 596] ([NMeL]I[Sar][Sar][NMePhe(4-Me)][Sar][Phe(3-I)][Phe(2-Me)][NMeAib]L[NMeD]-Piperidide; lactam N-11)", "pIC50": 7.47}
{"compound": "CC[C@H](C)[C@@H]1NC(=O)[C@H](CC(C)C)N(C)C(=O)C[C@@H](C(=O)N(C)C)N(C)C(=O)[C@H]([C@@H](C)CC)N(C)C(=O)C2(CCCC2)NC(=O)CN(CCOCC(C)(C)O)C(=O)[C@H](CCc2ccc(C(F)(F)F)c(Cl)c2)NC(=O)CN(C)C(=O)[C@H](CC2CCCCC2)N(C)C(=O)[C@@H]2CCN2C(=O)[C@H](C)N(C)C1=O [Compound 2028] ([NMeL]I[NMeA][Aze][NMeCha][Sar][hPhe(3-Cl-4-CF3)][X70][Ac5c][NMeI][NMeD]-NMe2; lactam N-11)", "pIC50": 7.96}
{"compound": "CC[C@@H]1NC(=O)[C@H](CC(=O)N2CCC(F)(F)CC2)N(C)C(=O)[C@H](CCc2ccc(C(F)(F)F)c(Cl)c2)NC(=O)CN(C)C(=O)[C@H](CC2CCCCC2)N(C)C(=O)CN(C)C(=O)CN(C)C(=O)[C@H]([C@@H](C)CC)NC(=O)[C@H](CC(C)C)N(C)C(=O)C[C@@H](C(=O)N2CCCCC2)N(C)C(=O)[C@H](C(C)C)N(C)C1=O [Compound 240] ([NMeL]I[Sar][Sar][NMeCha][Sar][hPhe(3-Cl-4-CF3)][NMeD](N(CH2CH2)2CF2)[Abu][NMeV][NMeD]-Piperidide; lactam N-11)", "pIC50": 6.85}
{"compound": "CC(C)CCOC[C@@H]1NC(=O)[C@H](CC(C)C)N(C)C(=O)C[C@@H](C(=O)N2CCCCC2)N(C)C(=O)[C@H](C2CCCCC2)N(C)C(=O)C2(CCCC2)NC(=O)[C@@H]2CCCN2C(=O)[C@H](CCc2ccc(C(F)(F)F)c(Cl)c2)NC(=O)CN(C)C(=O)[C@H](CC2CCCCC2)N(C)C(=O)CN(C)C(=O)CN(C)C1=O [Compound 794] ([NMeL]S(Isopentyl)[Sar][Sar][NMeCha][Sar][hPhe(3-Cl-4-CF3)]P[Ac5c][NMeChg][NMeD]-Piperidide; lactam N-11)", "pIC50": 7.96}
{"compound": "CC[C@H](C)[C@@H]1NC(=O)[C@H](CC(C)C)N(C)C(=O)C[C@@H](C(=O)N2CCCCC2)N(C)C(=O)[C@H](C2CCCC2)N(C)C(=O)C2(CCCC2)NC(=O)[C@@H](COCCC(C)C)N(C)C(=O)[C@H](CCc2ccc(C(F)(F)F)c(Cl)c2)NC(=O)CN(C)C(=O)[C@H](CC2CCCCC2)N(C)C(=O)[C@@H]2CCN2C(=O)[C@H](C)N(C)C1=O [Compound 1443] ([NMeL]I[NMeA][Aze][NMeCha][Sar][hPhe(3-Cl-4-CF3)][dNMeS](Isopentyl)[Ac5c][NMeGly(cPent)][NMeD]-Piperidide; lactam N-11)", "pIC50": 7.64}
{"compound": "CCCC[C@@H]1NC(=O)[C@H](Cc2cc(F)cc(Cl)c2)NC(=O)CN(C)C(=O)[C@H](Cc2ccc(Cl)cc2)N(C)C(=O)CN(C)C(=O)CN(C)C(=O)[C@H]([C@@H](C)CC)NC(=O)[C@H](CC(C)C)N(C)C(=O)C[C@@H](C(=O)N2CCCCC2)N(C)C(=O)[C@H](CC(C)C)NC(=O)C(C)(C)N(C)C1=O [Compound 202] ([NMeL]I[Sar][Sar][NMePhe(4-Cl)][Sar][X4][Nle][NMeAib]L[NMeD]-Piperidide; lactam N-11)", "pIC50": 7.41}
{"compound": "CC[C@H](C)[C@@H]1NC(=O)[C@H](C)N(C)C(=O)C[C@@H](C(=O)N(C)C)N(C)C(=O)[C@H]([C@@H](C)CC)N(C)C(=O)C2(CCCC2)NC(=O)[C@H](Cc2ccc(F)cc2)N(C)C(=O)[C@H](CCc2ccc(C(F)(F)F)c(Cl)c2)NC(=O)CN(C)C(=O)[C@H](Cc2ccc(C(F)(F)F)cc2)N(C)C(=O)[C@@H]2CCN2C(=O)[C@H](C)N(C)C1=O [Compound 1951] ([NMeA]I[NMeA][Aze][NMePhe(4-CF3)][Sar][hPhe(3-Cl-4-CF3)][NMePhe(4-F)][Ac5c][NMeI][NMeD]-NMe2; lactam N-11)", "pIC50": 8.00}
